test system: MS2 coat protein; test: apparent KD of MS2 coat protein; designed switch direction (-1 OFF switch, 1 ON switch): -1; higher = weaker reporter binding; conditions: Eterna round: R95; input ligand: FMN 200 uM
Quick reference: apparent KD of MS2 coat protein of the listed items.
# unit: nM | format: bare number

Some sequences with known apparent KD of MS2 coat protein results, for comparison:
Req: Consider the sequence CGUACUAACACGAAAGUGUUAGUACAAUAAGCUUGUGAAACAUGAGGAUCACCCAUGUCCUCAUAAGCUCGUCUUAU [salish99_TOv2_r3_007] (puzzle: Sensor v3, turn-off variant 2) and give its measured apparent KD of MS2 coat protein.
Resp: 17.1

Req: Consider the sequence AGUUGUUGUUUCCGUUCUUACAUGAGGAUCACCCAUGUUUCUUGUCGUGCUCGCGUUGCUCGUCAGACUACCUGUUG [salish99_TOv1_r3_064] (puzzle: Sensor v3, turn-off variant 1) and give its measured apparent KD of MS2 coat protein.
Resp: 87.1

Req: Consider the sequence AAUCCACAUGAGGAUCACCCAUGUGAGGAUAUGAUACUAUGUACUUCGGUACAUAGUAUCAGAAGGCACAUGAA [Ex1-3: 50] (puzzle: Exclusion 1) and give its measured apparent KD of MS2 coat protein.
Resp: 118

Continuing:
Req: Consider the sequence CAGUACUGCAGGCUUAGGGACAUGAGGAUCACCCAUGUUCGUCUUAUUGAUCUAGGUACGCUGACGUACCUAGAUCU [JL-sv1-2.15 Brourd mod] (puzzle: Sensor v3, turn-off variant 1) and give its measured apparent KD of MS2 coat protein.
Resp: 16.9

Req: Consider the sequence CAGUACUGAGGAUAUACAUGAGGAUCACCCAUGUGUUCCAGCUAGGAAACUAGCAGAAGUAGAAGGCAGUACUG [salish99_ex3_r3_067] (puzzle: Exclusion 3) and give its measured apparent KD of MS2 coat protein.
Resp: 425

---

system: MS2 coat protein; assay: apparent KD of MS2 coat protein, switch OFF state (with FMN for OFF switches, without FMN for ON switches); designed switch direction (-1 OFF switch, 1 ON switch): -1; higher = weaker reporter binding; settings: FMN input: 0 or 200 uM; Eterna round: R93 (includes R88 designs)
Quick reference: apparent KD of MS2 coat protein of the listed items.
# unit: µM | format: bare number

Some sequences with known apparent KD of MS2 coat protein results, for comparison:
Req: Consider the sequence GAAAAACAUGAGGAUCACCCAUGUCAGGAUAUGUAGAAAAAGAAAAAAAGAAAAGAAAACAGAAGGGACAAAAG [Mat - Same state - Mayanna Mod - D105] and give its measured apparent KD of MS2 coat protein.
Resp: 0.0385

Req: Consider the sequence AAGAAGCAAGGAUAUACAUGAGGAUCACCCAUGUAAAAGAAAGAAGGGAAAGAGAAAAGUAGAAGGUGCAAGAA [Shepsesre Tefnakhte] and give its measured apparent KD of MS2 coat protein.
Resp: 0.0301

Req: Consider the sequence AAGAAACAUGAGGAUCACCCAUGUGAGGAUAUCGAAGAAAGAAAGAAAGAAAGAAGAACGAGAAGGCACAAAGG [Publius Octavius] and give its measured apparent KD of MS2 coat protein.
Resp: 0.0593

Req: Consider the sequence CCAAACGGAGGAUAUACAAAUUAAGGAAAAAAACGCGAAAAACAUGAGGAUCACCCAUGUAGAAGGCCGAAAAA [Ex 2 #2] and give its measured apparent KD of MS2 coat protein.
Resp: 0.0185

Req: Consider the sequence ACCAGACAUGAGGAUCACCCAUGUCAGGAUAUCUAGAAAACCUCAUGUAAAAAAAUCUAGAGAAGGGAUAUGGA [Design 94: Pseudoknot D] and give its measured apparent KD of MS2 coat protein.
Resp: 0.0547

We next turn to a different sequence, shown below.
Req: Consider the sequence AAAAAACAUGAGGAUCACCCAUGUUAGGAUAUCGUGCAGAAAAAAAAAAAAAACUGCACGAGAAGGAACAAGGA [Brourd - Exclusion 1 - Sub 2] and give its measured apparent KD of MS2 coat protein.
Resp: 0.0449
